For each entry below, report its MFI at 100 nM value.
Target or test system: human delta-like ligand 3 (DLL3) on SHP77 cells (human) (UniProt Q9NYJ7)
Sequence (Q9NYJ7 27-618, stated change not applied): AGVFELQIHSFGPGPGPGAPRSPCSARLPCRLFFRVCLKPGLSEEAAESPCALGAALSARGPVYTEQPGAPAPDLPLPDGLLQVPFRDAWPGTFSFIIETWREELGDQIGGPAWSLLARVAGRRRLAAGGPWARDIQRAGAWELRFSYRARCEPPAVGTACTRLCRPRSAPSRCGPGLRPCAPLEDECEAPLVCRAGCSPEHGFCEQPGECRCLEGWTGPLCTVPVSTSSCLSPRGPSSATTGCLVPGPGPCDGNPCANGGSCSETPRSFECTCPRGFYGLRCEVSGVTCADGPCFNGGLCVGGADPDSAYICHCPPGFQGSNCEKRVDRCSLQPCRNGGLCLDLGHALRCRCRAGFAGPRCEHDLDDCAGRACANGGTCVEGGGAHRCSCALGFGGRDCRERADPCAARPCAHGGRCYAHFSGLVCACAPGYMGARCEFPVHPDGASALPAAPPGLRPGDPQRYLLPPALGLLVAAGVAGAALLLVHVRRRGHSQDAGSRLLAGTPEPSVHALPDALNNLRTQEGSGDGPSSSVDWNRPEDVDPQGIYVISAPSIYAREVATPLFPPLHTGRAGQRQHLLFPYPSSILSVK
Assay protocol: FACS on SHP77 cells
Reply with just the number (in MFI).

State its MFI at 100 nM for this binder: Hab015VL5VH6a-hFc (scFv, part only; not given: scFv linker and human IgG1 Fc, V domains shown, not shown: another chain or arm of the molecule; a dimerising Fc or GST; small tags and cut ends) VL: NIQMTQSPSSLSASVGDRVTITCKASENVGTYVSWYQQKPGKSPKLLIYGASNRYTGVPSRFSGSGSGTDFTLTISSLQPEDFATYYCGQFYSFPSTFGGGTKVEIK VH: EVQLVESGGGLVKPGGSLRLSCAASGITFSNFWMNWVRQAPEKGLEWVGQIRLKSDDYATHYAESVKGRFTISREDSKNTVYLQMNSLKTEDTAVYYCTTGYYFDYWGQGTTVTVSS 1090

State its MFI at 100 nM for this binder: Hab015VL4VH6a-hFc (scFv, part only; not given: scFv linker and human IgG1 Fc, V domains shown, not shown: another chain or arm of the molecule; a dimerising Fc or GST; small tags and cut ends) VL: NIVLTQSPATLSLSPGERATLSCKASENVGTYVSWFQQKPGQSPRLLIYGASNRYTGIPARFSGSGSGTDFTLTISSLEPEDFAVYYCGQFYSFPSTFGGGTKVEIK VH: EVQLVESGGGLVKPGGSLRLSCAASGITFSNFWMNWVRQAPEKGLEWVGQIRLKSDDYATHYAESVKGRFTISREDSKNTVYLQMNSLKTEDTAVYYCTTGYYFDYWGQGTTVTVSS 1270

State its MFI at 100 nM for this binder: Hab008L1H5-hFc (scFv, part only; not given: VL-VH linker and human IgG1 Fc, V domains shown, not shown: another chain or arm of the molecule; a dimerising Fc or GST; small tags and cut ends) VL: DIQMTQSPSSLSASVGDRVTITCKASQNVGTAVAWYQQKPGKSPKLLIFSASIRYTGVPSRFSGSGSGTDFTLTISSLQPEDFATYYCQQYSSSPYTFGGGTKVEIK VH: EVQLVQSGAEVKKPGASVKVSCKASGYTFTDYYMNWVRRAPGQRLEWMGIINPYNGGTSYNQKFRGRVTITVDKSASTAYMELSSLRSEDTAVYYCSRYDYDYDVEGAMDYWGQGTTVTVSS 1530

State its MFI at 100 nM for this binder: Hab009VL3aVH1-hFc (Fc fusion, part only; not given: Linker and human IgG1 Fc, not shown: a dimerising Fc or GST) scFv, part: DIVMTQSPLSLPVTPGEPASISCRASQTISDYLHWYLQKSHQSPQLLIKYASQSISGVPDRFSGSGSGTDFTLKISRVEAEDVGVYYCQQGHSFPLTFGQGTKLEIKEVQLVQSGAEVKKPGASVKVSCKASGYTFTSYWMHWVRQAPGQRLEWMGTIYPGNSDTRYNQKFKDRVTITADTSASTAYMELSSLRSEDTAVYYCTRSYDYGDLDYWGQGTTVTVSS 954

State its MFI at 100 nM for this binder: Hab008L3H5-hFc (scFv, part only; not given: scFv linker and human IgG1 Fc, V domains shown, not shown: another chain or arm of the molecule; a dimerising Fc or GST; small tags and cut ends) VL: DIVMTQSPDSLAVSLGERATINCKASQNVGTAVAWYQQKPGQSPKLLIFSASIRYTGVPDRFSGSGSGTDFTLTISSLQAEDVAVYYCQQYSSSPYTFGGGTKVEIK VH: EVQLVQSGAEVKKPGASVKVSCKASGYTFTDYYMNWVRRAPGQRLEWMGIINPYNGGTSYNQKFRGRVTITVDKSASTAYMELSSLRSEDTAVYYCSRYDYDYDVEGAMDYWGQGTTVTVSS 974

State its MFI at 100 nM for this binder: Hab006VL1VH4-hFc (scFv, part only; not given: VL-VH linker and human IgG1 Fc, V domains shown, not shown: another chain or arm of the molecule; a dimerising Fc or GST; small tags and cut ends) VL: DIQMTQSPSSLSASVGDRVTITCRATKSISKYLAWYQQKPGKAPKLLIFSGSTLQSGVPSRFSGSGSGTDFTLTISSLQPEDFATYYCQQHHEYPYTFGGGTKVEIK VH: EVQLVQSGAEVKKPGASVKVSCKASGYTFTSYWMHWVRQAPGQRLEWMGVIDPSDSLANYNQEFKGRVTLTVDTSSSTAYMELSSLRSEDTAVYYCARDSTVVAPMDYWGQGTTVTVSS 1890

State its MFI at 100 nM for this binder: Hab014VL2VH1-hFc (scFv, part only; not given: scFv linker and human IgG1 Fc, V domains shown, not shown: another chain or arm of the molecule; a dimerising Fc or GST; small tags and cut ends) VL: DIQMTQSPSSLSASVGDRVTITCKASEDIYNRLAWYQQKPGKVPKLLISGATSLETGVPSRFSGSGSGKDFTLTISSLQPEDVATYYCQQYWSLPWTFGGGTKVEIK VH: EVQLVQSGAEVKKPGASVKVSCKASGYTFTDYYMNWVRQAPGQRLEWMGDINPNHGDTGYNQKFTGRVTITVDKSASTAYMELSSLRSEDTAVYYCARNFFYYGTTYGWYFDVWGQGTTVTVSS 1110

State its MFI at 100 nM for this binder: Hab015VL4VH5a-hFc (scFv, part only; not given: VL-VH linker and human IgG1 Fc, V domains shown, not shown: another chain or arm of the molecule; a dimerising Fc or GST; small tags and cut ends) VL: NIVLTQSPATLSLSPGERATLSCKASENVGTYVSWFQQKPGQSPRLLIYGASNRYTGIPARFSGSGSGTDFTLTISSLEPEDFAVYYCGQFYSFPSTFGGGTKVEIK VH: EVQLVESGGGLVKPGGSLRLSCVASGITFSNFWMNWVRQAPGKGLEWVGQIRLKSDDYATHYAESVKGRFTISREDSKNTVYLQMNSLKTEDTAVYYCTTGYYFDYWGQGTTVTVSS 1250

State its MFI at 100 nM for this binder: Hab013VL2VH2a-hFc (scFv, part only; not given: scFv linker and human IgG1 Fc, V domains shown, not shown: another chain or arm of the molecule; a dimerising Fc or GST; small tags and cut ends) VL: EIVLTQSPATLSLSPGERATLSCRASKSVSTSGFSYMHWYQQKPGQPPRLLIYLASNLESGIPARFSGSGSGTDFTLTISSLEPEDFAVYYCQHSRELPFTFGQGTKLEIK VH: EVQLVQSGAEVKKPGSSVKVSCKASGYAFSNYWINWVRQAPGQGLEWMGQINPGDGDTIYNSKFKGRVTITADKSTSTAYMELSSLRSEDTAVYYCEREGRNYGDFAYWGQGTTVTVSS 1140

State its MFI at 100 nM for this binder: Hab006VL4VH1-hFc (scFv, part only; not given: scFv linker and human IgG1 Fc, V domains shown, not shown: another chain or arm of the molecule; a dimerising Fc or GST; small tags and cut ends) VL: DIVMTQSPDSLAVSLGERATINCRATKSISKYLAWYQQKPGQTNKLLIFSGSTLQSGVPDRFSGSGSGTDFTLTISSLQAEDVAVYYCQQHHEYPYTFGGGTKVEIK VH: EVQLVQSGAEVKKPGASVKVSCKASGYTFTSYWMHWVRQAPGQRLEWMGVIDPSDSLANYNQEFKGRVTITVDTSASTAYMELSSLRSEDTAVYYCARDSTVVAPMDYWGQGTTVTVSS 1900
